B1: library; a variant is named by its letters at N, in order (parent)
chain: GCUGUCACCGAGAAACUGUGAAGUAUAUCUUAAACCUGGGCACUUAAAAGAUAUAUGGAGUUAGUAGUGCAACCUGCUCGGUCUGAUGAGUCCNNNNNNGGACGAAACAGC

Variants of: B1
Assay: FACS-Seq fitted mean relative fluorescence mCherry/BFP without ligand (log10 relative fluorescence); HEK293T; ligand: cyclic di-GMP (c-di-GMP-II aptamer); higher = higher reporter protein expression
Conditions: ligand present: no

[
  {
    "var": "CAACAA",
    "FACS-Seq fitted mean (log10)": -0.326
  },
  {
    "var": "CUAUCU",
    "FACS-Seq fitted mean (log10)": -0.234
  },
  {
    "var": "CUUGAC",
    "FACS-Seq fitted mean (log10)": -0.287
  },
  {
    "var": "CGACUA",
    "FACS-Seq fitted mean (log10)": -0.639
  },
  {
    "var": "ACUGGU",
    "FACS-Seq fitted mean (log10)": -0.466
  },
  {
    "var": "ACACAG",
    "FACS-Seq fitted mean (log10)": -0.515
  },
  {
    "var": "UAAGUA",
    "FACS-Seq fitted mean (log10)": -0.292
  },
  {
    "var": "UAGUGG",
    "FACS-Seq fitted mean (log10)": -0.133
  },
  {
    "var": "UCGGUA",
    "FACS-Seq fitted mean (log10)": -0.583
  },
  {
    "var": "AAGCCU",
    "FACS-Seq fitted mean (log10)": 0.14
  },
  {
    "var": "CGUAAU",
    "FACS-Seq fitted mean (log10)": -0.374
  }
]

Hello, the source for this data is the supplement of paper PMC6757056, in case you need it.
